- PROCEDURE DETAILS: chemical genetic growth profiling, strain panel (AID 1159580);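 also: tested at 20 µM; growth read once vehicle control cultures reached saturation at 30 °C; 1 = growth at the plate median or of vehicle wells; lower values mean less growth of the strain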
- TEST PARAMETERS: S. cerevisiae deletion strains, growth OD, locus YJL164C, strain tpk1, active compounds read low
Hit rate of the full screen: of about 5,500 compounds, about 2,000 (36%) were called active. Another 18% or so got no clear call; they are omitted. Some of the results follow.
Hi! Could you tag entries with normalized growth below 1 as t, and those at or above as f? Much appreciated.

For orientation, consider the following solved cases.
COMPOUND | QUALITATIVE LABEL
O=C(CCCN1CCC(O)(c2ccc(Cl)cc2)CC1)c1ccc(F)cc1 | t
OC1(c2ccc(Cl)c(C(F)(F)F)c2)CCN(CCCC(c2ccc(F)cc2)c2ccc(F)cc2)CC1 | t

Regarding CC(C)c1cccc(O)c(=O)c1 , kindly confirm whether its normalized growth is beneath 1.
t

Regarding CC1(C)S[C@@H]2C(N3C(=O)[C@@H](c4ccccc4)NC3(C)C)C(=O)N2[C@H]1C(=O)O (stereo not given in full) , kindly confirm whether its normalized growth is beneath 1.
f

* * *

- PROCEDURE DETAILS: chemical genetic growth profiling, strain panel (AID 1159580);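 also: tested at 20 µM; growth read once vehicle control cultures reached saturation at 30 °C; 1 = growth at the plate median or of vehicle wells; lower values mean less growth of the strain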
- TEST PARAMETERS: S. cerevisiae deletion strains, growth OD, locus YAL040C, strain CLN3, active compounds read low
The campaign covered roughly 5,500 compounds. About 2,000 (36%) were called active. About 18% were inconclusive and are not listed. The list shows a part of the results.
Catalogue of molecules with associated normalized growth

// worked examples, normalized growth included
MOLECULE | TEST RESULT
O=C(O)C1=CC(=C(c2ccc(O)c(C(=O)O)c2)c2ccc(O)c(C(=O)O)c2)C=CC1=O | 1.02 (inactive)
C/C=C/CC(C)C(O)C1C(=O)NC(CC)C(=O)N(C)CC(=O)N(C)C(CC(C)C)C(=O)NC(C(C)C)C(=O)N(C)C(CC(C)C)C(=O)NC(C)C(=O)NC(C)C(=O)N(C)C(CC(C)C)C(=O)N(C)C(CC(C)C)C(=O)N(C)C(C(C)C)C(=O)N1C (stereo unspecified) | 1.04 (inactive)
O=C(O)CCc1nc(-c2ccccc2)c(-c2ccccc2)o1 | 0.978 (inactive)
CCN(CC)C(=O)N[C@@H]1C[C@@H]2c3cccc4[nH]cc(c34)C[C@H]2N(C)C1 | 1 (inactive)
NC(N)=NC(N)=Nc1cccc(Cl)c1 | 1 (inactive)

Next, consider the following molecule.
Tell me normalized growth reported for CCCOC(=O)c1c(-c2ccccc2)nc(CC)c(C(=O)SCC)c1CCC
1.04 (inactive)

* * *

- PROCEDURE DETAILS: chemical genetic growth profiling, strain panel (AID 1159580);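 also: tested at 20 µM; growth read once vehicle control cultures reached saturation at 30 °C; 1 = growth at the plate median or of vehicle wells; lower values mean less growth of the strain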
- TEST PARAMETERS: S. cerevisiae deletion strains, growth OD, locus YKL085W, strain MDH1 (second series), active compounds read low
In all, about 5,500 compounds went through this assay and about 2,000 (36%) were called active. About 18% were inconclusive and are not listed. The list shows a part of the results.
Catalogue of compounds with associated normalized growth
Please respond with just the number, no unit label.

// worked examples, normalized growth included
COMPOUND | METRIC | TEST RESULT
CCC(=O)O[C@]1(C(=O)CCl)[C@@H](C)CC2C3CCC4=CC(=O)C=C[C@]4(C)[C@@]3(F)[C@@H](O)C[C@@]21C (stereo partly specified) | normalized growth | 0.985
CCC(=O)OCC(=O)C1(OC(=O)CC)C(C)CC2C3CCC4=CC(=O)C=CC4(C)C3(Cl)C(O)CC21C (stereo unspecified) | normalized growth | 0.997
COc1ccc(-c2cc(=O)c3c(O)c(OC)c(O[C@H]4O[C@H](CO[C@@H]5O[C@@H](C)[C@H](O)[C@@H](O)[C@H]5O)[C@@H](O)[C@H](O)[C@H]4O)cc3o2)cc1 | normalized growth | 1.02
COC(=O)NC(=S)Nc1ccccc1NC(=S)NC(=O)OC | normalized growth | 1
CCCCC(=O)O[C@]1(C(=O)CO)[C@@H](C)CC2C3CCC4=CC(=O)C=C[C@]4(C)[C@@]3(F)C(O)C[C@@]21C (stereo partly specified) | normalized growth | 0.987
NC[C@H]1O[C@H](OC2[C@@H](N)C[C@@H](N)[C@H](O[C@H]3O[C@H](CO)[C@@H](O)[C@H](N)[C@H]3O)[C@H]2O)[C@H](O)[C@@H](O)[C@@H]1O (stereo partly specified) | normalized growth | 0.98
CC1(C)S[C@@H]2C(N3C(=O)[C@@H](c4ccccc4)NC3(C)C)C(=O)N2[C@H]1C(=O)O (stereo partly specified) | normalized growth | 1.02
CN(C)C(=O)C(CCN1CCC(O)(c2ccc(Cl)cc2)CC1)(c1ccccc1)c1ccccc1 | normalized growth | 1.01

Tell me normalized growth reported for COC(=O)[C@H]1[C@H]2C[C@H]3c4[nH]c5cc(OC)ccc5c4CCN3C[C@H]2C[C@@H](OC(=O)c2cc(OC)c(OC)c(OC)c2)[C@@H]1OC
1
